test system: CNXF U-87 MG; assay: CellTiter-Blue Cell Viability Assay (Example 2), glioblastoma; format: cell-based, human; details: read-out: Relative IC50
readout.label: pIC50
Reminder that pIC50 means the negative base-10 logarithm of the concentration expressed in mol/L.

Task item: Could you tell me which pIC50 is on file for CC(C)(O)Cn1nc(-c2ccccc2)c2c(Cl)c(-c3ccccc3)nnc21 [Compound 85] ?
Reply: 6.03

* * *

test system: PAXF 1657; test: CellTiter-Blue Cell Viability Assay (Example 2), pancreatic; format: cell-based, human; conditions: read-out: Relative IC50
readout.label: IC50 (nM)
Write the value in nM as a bare number.

Task item: Could you tell me which IC50 is on file for CC(C)(O)Cn1nc(-c2ccccc2)c2c(Cl)c(-c3ccccc3)nnc21 [Compound 85] ?
Reply: 1050

* * *

tested on: PRXF PC-3; test: CellTiter-Blue Cell Viability Assay (Example 2), prostate; assay type: cell-based, human; details: read-out: Absolute IC50
readout.label: IC50 (nM)
Write the value in nM as a bare number.

Task item: Could you tell me which IC50 is on file for CC(C)(O)Cn1nc(-c2ccccc2)c2c(Cl)c(-c3ccccc3)nnc21 [Compound 85] ?
Reply: 1100

* * *

tested on: PAXF 1657; experiment: CellTiter-Blue 2D monolayer assay (Example 1), pancreas; assay type: cell-based, human; conditions: read-out: Rel. IC50
readout.label: IC50 (µM)
Write the value in µM as a bare number.

Task item: Could you tell me which IC50 is on file for `CC(C)(O)Cn1nc(-c2ccccc2)c2c(Cl)c(-c3ccccc3)nnc21` ?
Reply: 1.84

* * *

system: MEXF 1341; test: CellTiter-Blue Cell Viability Assay (Example 2), melanoma; type: cell-based, human; settings: read-out: Absolute IC50
readout.label: pIC50
Reminder that pIC50 means the negative base-10 logarithm of the concentration expressed in mol/L.

Task item: Find the measured pIC50: item `CC(C)(O)Cn1nc(-c2ccccc2)c2c(Cl)c(-c3ccccc3)nnc21` , target or system MEXF 1341.
Reply: 6.41

* * *

test system: OVXF A2780; test: CellTiter-Blue 2D monolayer assay (Example 1), ovarian; format: cell-based, human; settings: read-out: Rel. IC50
readout.label: IC50 (nM)
Write the value in nM as a bare number.

Task item: Could you tell me which IC50 is on file for `CC(C)(O)Cn1nc(-c2ccccc2)c2c(Cl)c(-c3ccccc3)nnc21` ?
Reply: 1700

* * *

system: OVXF 899; test: CellTiter-Blue Cell Viability Assay (Example 2), ovarian; assay type: cell-based, human; conditions: read-out: Absolute IC50
readout.label: pIC50
Reminder that pIC50 means the negative base-10 logarithm of the concentration expressed in mol/L.

Task item: Find the measured pIC50: item `CC(C)(O)Cn1nc(-c2ccccc2)c2c(Cl)c(-c3ccccc3)nnc21` , target or system OVXF 899.
Reply: 6.46

* * *

test system: OVXF 899; experiment: CellTiter-Blue 2D monolayer assay (Example 1), ovarian; format: cell-based, human; details: read-out: Rel. IC50
readout.label: IC50 (nM)
Write the value in nM as a bare number.

Task item: Find the measured IC50: item `CC(C)(O)Cn1nc(-c2ccccc2)c2c(Cl)c(-c3ccccc3)nnc21` , target or system OVXF 899.
Reply: 522

* * *

tested on: CXF HCC-2998; experiment: CellTiter-Blue Cell Viability Assay (Example 2), colon; type: cell-based, human; conditions: read-out: Absolute IC50
readout.label: IC50 (nM)
Write the value in nM as a bare number.

Task item: Could you tell me which IC50 is on file for CC(C)(O)Cn1nc(-c2ccccc2)c2c(Cl)c(-c3ccccc3)nnc21 [Compound 85] ?
Reply: 844
